Hey, just so you know, these numbers are from patent US11746100B2.

Target: human ferroportin (Homo sapiens)
Construct: luciferase reporter (read with the Nano-Glo Luciferase Assay System); expressed in transfected cells; host or cells: CHO cells, stably transfected, expression induced with doxycycline
Sequence (Q9NP59 1-571): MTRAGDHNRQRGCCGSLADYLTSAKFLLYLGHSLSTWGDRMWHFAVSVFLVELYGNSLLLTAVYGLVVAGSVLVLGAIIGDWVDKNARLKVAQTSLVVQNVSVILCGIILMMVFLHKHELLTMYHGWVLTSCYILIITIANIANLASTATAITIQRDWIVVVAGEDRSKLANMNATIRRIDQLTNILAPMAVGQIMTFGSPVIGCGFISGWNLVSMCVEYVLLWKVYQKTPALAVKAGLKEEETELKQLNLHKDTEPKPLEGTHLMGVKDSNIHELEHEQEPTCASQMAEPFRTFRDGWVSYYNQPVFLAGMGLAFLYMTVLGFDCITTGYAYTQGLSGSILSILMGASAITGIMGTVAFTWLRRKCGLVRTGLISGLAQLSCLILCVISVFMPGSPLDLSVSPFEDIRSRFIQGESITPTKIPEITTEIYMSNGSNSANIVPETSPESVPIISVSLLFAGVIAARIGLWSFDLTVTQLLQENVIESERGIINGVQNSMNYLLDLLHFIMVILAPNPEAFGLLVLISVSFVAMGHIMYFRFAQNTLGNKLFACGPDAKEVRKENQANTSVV
Experiment: Biological in-vitro ferroportin internalization assay (luciferase reporter)
Format: cell-based
Settings: average pEC50; stably-transfected CHO cell line expressing human ferroportin tagged to a luciferase reporter; 6 h incubation with test compound
MEASURED ENDPOINT: pEC50

INSERT INTO assay_data (compound, numeric_result) VALUES
  ('Cc1ccc(NC(=O)CN(C)c2nc(-c3cc(OCC(C)(C)O)ccn3)nc3c2CCC3)cn1', 7.9),
  ('CN1CCC(NC(=O)CN(C)c2nc(-c3ccccn3)nc3c2CCC3)C1=O (stereo not shown)', 6.2),
  ('COC[C@@H](O)COc1ccnc(-c2nc3c(c(N(C)CC(=O)NC(C)C)n2)CCC3)c1', 7.4),
  ('c1ccc(-c2nc3c(c(N4CC5CC4CO5)n2)CCC3)nc1 (stereo not shown)', 5.5),
  ('CCNC(=O)CN(C)c1nc(-c2cc(OCC(C)(C)O)ccn2)nc2c1CCC2', 7.8),
  ('CCC(O)(CC)COc1ccnc(-c2nc3c(c(N(C)CC(=O)NC(C)(C)C)n2)CCC3)c1', 8.4),
  ('C[C@H](C(=O)NC(C)(C)C)N(C)c1nc(-c2cc(OCCO)ccn2)nc2c1CCC2', 8.4),
  ('CN(CC(=O)Nc1ccc(OC(F)(F)F)nc1)c1nc(-c2cc3ccccc3cn2)nc2c1CCC2', 6.4),
  ('CN(c1nc(-c2ccccn2)nc2c1CCC2)C1(C(=O)NC2CCCCC2)CC1', 6.6),
  ('CN(CC(=O)NC(C)(C)C)c1nc(-c2cc(OCCN3C[C@@H]4C[C@H]3CO4)ccn2)nc2c1CCC2', 8.3),
  ('CN(CC(=O)NC(C)(C)C)c1nc(-c2ncc(CCO)s2)nc2c1CCC2', 5.7),
  ('CN(CC(=O)N1CCCCC1)c1nc(-c2cc(OCCO)ccn2)nc2c1C(C)(C)CC2', 8),
  ('CN(CC(=O)NC(C)(C)C)c1nc(-c2cc(O[C@H]3CCOC3)ccn2)nc2c1CCC2', 7.9),
  ('COc1ncc(NC(=O)CN(C)c2nc(-c3cc(OCC(C)(C)O)ccn3)nc3c2CCC3)cn1', 7.6),
  ('COc1cccc(NC(=O)CN(C)c2nc(-c3cn(C)cn3)nc3c2CCC3)c1', 7.8),
  ('COc1ccnc(-c2nc3c(c(N(C)CC(=O)NC4(C(F)(F)F)CC4)n2)CCC3)c1', 7.3);
